Biological target: human recombinant mGluR5 (Homo sapiens, UniProt P41594)
Construct: tetracycline removed 3-7 days before the assay
Sequence (P41594 21-1212): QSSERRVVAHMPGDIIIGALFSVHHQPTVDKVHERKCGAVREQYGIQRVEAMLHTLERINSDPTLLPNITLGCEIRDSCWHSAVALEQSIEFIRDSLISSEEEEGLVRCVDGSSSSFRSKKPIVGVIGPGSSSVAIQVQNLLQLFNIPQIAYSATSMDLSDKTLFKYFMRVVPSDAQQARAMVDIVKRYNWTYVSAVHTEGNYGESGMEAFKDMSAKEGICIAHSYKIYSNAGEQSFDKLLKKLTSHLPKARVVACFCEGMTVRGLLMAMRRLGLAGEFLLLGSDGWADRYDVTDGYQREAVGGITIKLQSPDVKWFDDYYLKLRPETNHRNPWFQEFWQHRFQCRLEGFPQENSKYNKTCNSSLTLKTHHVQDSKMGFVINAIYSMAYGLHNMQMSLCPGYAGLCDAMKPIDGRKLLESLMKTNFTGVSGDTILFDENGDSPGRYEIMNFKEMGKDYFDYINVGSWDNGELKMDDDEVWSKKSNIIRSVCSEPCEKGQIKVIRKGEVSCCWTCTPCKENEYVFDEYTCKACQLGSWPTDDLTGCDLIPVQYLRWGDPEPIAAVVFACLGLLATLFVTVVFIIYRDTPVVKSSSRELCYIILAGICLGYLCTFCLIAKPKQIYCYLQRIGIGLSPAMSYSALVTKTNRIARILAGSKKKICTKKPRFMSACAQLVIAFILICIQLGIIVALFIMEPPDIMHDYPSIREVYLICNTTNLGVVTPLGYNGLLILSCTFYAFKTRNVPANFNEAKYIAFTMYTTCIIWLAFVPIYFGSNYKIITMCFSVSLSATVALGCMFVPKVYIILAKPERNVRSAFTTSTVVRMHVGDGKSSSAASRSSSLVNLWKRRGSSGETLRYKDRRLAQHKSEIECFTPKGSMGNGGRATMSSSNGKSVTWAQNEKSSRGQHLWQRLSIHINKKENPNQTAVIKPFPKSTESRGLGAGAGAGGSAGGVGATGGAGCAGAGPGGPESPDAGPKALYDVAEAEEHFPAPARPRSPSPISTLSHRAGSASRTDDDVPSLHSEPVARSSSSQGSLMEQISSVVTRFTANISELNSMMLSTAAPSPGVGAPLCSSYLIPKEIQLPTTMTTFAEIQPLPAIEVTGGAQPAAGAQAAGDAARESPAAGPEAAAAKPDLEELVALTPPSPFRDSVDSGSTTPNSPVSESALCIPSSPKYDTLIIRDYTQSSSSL
Test: positive modulation of mGluR5, calcium based FLIPR assay in HEK 293 cells
Conditions: HEK 293 cell line expressing human recombinant mGluR5; EC50 of the modulation of the glutamate response (glutamate approx. 5% basal stimulation); peak height of Ca release fluorescence signal
PROPERTY LABEL: EC50 (nM)

Sample records with EC50:
{"COMPOUND": "O=C(Cn1nc(-c2ccc(F)cc2)nc1-c1ccc(F)cc1)N1CCN(c2ccnc(F)c2)CC1", "TARGET OR SYSTEM": "human recombinant mGluR5 (Homo sapiens, UniProt P41594)", "EC50, nM": 399}
{"COMPOUND": "Cc1cc(-c2nc(CC(C)C)n(CC(=O)N3CCN(c4ccccn4)CC3)n2)ccc1F", "TARGET OR SYSTEM": "human recombinant mGluR5 (Homo sapiens, UniProt P41594)", "EC50, nM": 387}
{"COMPOUND": "CCOc1ccnc(N2CCN(C(=O)Cn3nc(-c4ccc(F)cc4)nc3-c3ccc(F)cc3)CC2)c1", "TARGET OR SYSTEM": "human recombinant mGluR5 (Homo sapiens, UniProt P41594)", "EC50, nM": 50}
{"COMPOUND": "Cc1ccnc(N2CCN(C(=O)Cn3nc(-c4ccc(F)cc4)nc3-c3ccc(F)cc3)CC2)c1", "TARGET OR SYSTEM": "human recombinant mGluR5 (Homo sapiens, UniProt P41594)", "EC50, nM": 44}

P = O=C(Cn1nc(-c2ccc(F)cc2)nc1-c1ccc(F)cc1)N1CCN(c2cc(C(F)(F)F)ccn2)CC1
Q = CCC(C)c1nc(-c2ccc(F)c(C)c2)nn1CC(=O)N1CCN(c2cc(C)ccn2)CC1 (stereo not drawn)
Prompt: Pick one, P or Q : lowest reported EC50. Mark your selection by writing its label.
Response: P

P = O=C(Cn1nc(-c2ccc(F)cc2)nc1-c1ccc(F)cc1)N1CCN(c2ncc(Br)cn2)CC1
Q = Cc1cc(C)nc(N2CCN(C(=O)Cn3nc(-c4ccc(F)cc4)nc3-c3ccc(F)cc3)CC2)n1
R = Cc1cc(-c2nc(C(C)C)n(CC(=O)N3CCN(c4ccccn4)CC3)n2)ccc1F
Prompt: Sort low-to-high on EC50, please. // rank by listing labels in the order requested
Response: P, Q, R

###

Biological target: human recombinant mGluR5 (Homo sapiens)
Construct: tetracycline removed 3-7 days before the assay
Assay: positive modulation of mGluR5, calcium based FLIPR assay in HEK 293 cells
Conditions: HEK 293 cell line expressing human recombinant mGluR5; EC50 of the modulation of the glutamate response (glutamate approx. 5% basal stimulation); peak height of Ca release fluorescence signal
PROPERTY LABEL: EC50 (nM)

Solved cases below.
{"SMILES STRUCTURE": "COc1ccc(-c2nc(-c3ccc(F)cc3)nn2CC(=O)N2CCN(c3ccccn3)CC2)cc1", "UNIT LABEL": "nM", "OBSERVED MEASUREMENT": 182}
{"SMILES STRUCTURE": "O=C(Cn1nc(-c2ccc(F)cc2)nc1-c1ccc(F)cc1)N1CCN(c2cccnc2)CC1", "UNIT LABEL": "nM", "OBSERVED MEASUREMENT": 600}
{"SMILES STRUCTURE": "CN1CCN(CCCOc2cc(N3CCN(C(=O)Cn4nc(-c5ccc(F)cc5)nc4-c4ccc(F)cc4)CC3)ncn2)CC1", "UNIT LABEL": "nM", "OBSERVED MEASUREMENT": 252}

a = CCc1cc(N2CCN(C(=O)Cn3nc(-c4ccc(F)cc4)nc3-c3ccc(F)cc3)CC2)nc(Cl)n1
b = Cc1cc(-c2nc(CCC(C)C)n(CC(=O)N3CCN(c4ncccn4)CC3)n2)ccc1F
Prompt: Form: Entry with minimum EC50 (choose one): a / b Could you answer with the label of the item you picked?
Response: b
(b: 140 nM, a: 1210 nM)

a = CCCc1nc(-c2ccc(F)c(C)c2)nn1CC(=O)N1CCN(c2ccccn2)CC1
b = Cc1cc(-c2nc(C3CCCCC3)n(CC(=O)N3CCN(c4cccnn4)CC3)n2)ccc1F
Prompt: Please tell me which of the two, a or b , has the higher reported EC50 value. Label of pick, please.
Response: a
(a: 497 nM, b: 257 nM)

###

Biological target: human recombinant mGluR5 (Homo sapiens, UniProt P41594)
Construct: tetracycline removed 3-7 days before the assay
Test: positive modulation of mGluR5, calcium based FLIPR assay in HEK 293 cells
Details: HEK 293 cell line expressing human recombinant mGluR5; EC50 of the modulation of the glutamate response (glutamate approx. 5% basal stimulation); peak height of Ca release fluorescence signal
Procedure: The positive modulation of mGluR5 is measured in a HEK 293 cell line expressing human recombinant mGluR5 and is detected with calcium based FLIPR assay. […] 20 μl of each compound solution are then transferred to the assay plate and the Ca2+ kinetic is measured to determine any intrinsic compound activity. […] The peak height of the Ca release related fluorescence signal (9-66) is used for the EC50. The EC50 of the modulation is calculated over a nonlinear regression with GraphPad Prism (Table 1).
PROPERTY LABEL: EC50 (nM)

Solved cases (2 shown):
{"COMPOUND": "CCC(C)c1nc(-c2ccc(F)c(C)c2)nn1CC(=O)N1CCN(c2ccccn2)CC1 (stereo not shown)", "PROPERTY LABEL": "EC50", "OBSERVED MEASUREMENT": 998}
{"COMPOUND": "Cc1ccc(N2CCN(C(=O)Cn3nc(-c4ccc(F)cc4)nc3-c3ccc(F)cc3)CC2)nc1", "PROPERTY LABEL": "EC50", "OBSERVED MEASUREMENT": 155}

P = CCCCc1nc(-c2ccc(F)c(C)c2)nn1CC(=O)N1CCN(c2ccccn2)CC1
Q = COc1ccc(-c2nc(-c3ccc(F)cc3)n(CC(=O)N3CCN(c4ccccn4)CC3)n2)cc1
Prompt: Select one. Lower EC50: P or Q # answer = label of selected item
Response: Q

###

Target: human recombinant mGluR5 (Homo sapiens, UniProt P41594)
Construct: tetracycline removed 3-7 days before the assay
Test: positive modulation of mGluR5, calcium based FLIPR assay in HEK 293 cells
Conditions: HEK 293 cell line expressing human recombinant mGluR5; EC50 of the modulation of the glutamate response (glutamate approx. 5% basal stimulation); peak height of Ca release fluorescence signal
pEC50: −log10 of the molar value.
PROPERTY LABEL: pEC50

These recorded examples may help you get a feel for the data.
{"MOLECULE": "CCOc1cccc(-c2nc(-c3ccccc3)n(CC(=O)N3CCN(c4ncccn4)CC3)n2)c1", "pEC50": 7.37}
{"MOLECULE": "COc1cc(N2CCN(C(=O)Cn3nc(-c4ccccc4)nc3-c3ccccc3)CC2)ncn1", "pEC50": 5.96}
{"MOLECULE": "COc1cc(N2CCN(C(=O)Cn3nc(-c4ccc(F)c(C)c4)nc3-c3ccc(F)c(C)c3)CC2)ncn1", "pEC50": 7.23}
{"MOLECULE": "O=C(Cn1nc(-c2ccc(F)cc2)nc1-c1ccc(F)cc1)N1CCN(c2cc(OCC3CCCCO3)ncn2)CC1 (stereo not shown)", "pEC50": 7.28}
{"MOLECULE": "O=C(Cn1nc(-c2ccc(F)cc2)nc1-c1ccc(F)cc1)N1CCN(c2cc(OCCOCCOCCO)ncn2)CC1", "pEC50": 6.76}

1 = COc1ccc(-c2nc(-c3ccc(F)cc3)nn2CC(=O)N2CCN(c3cccnn3)CC2)cc1
2 = COc1ccc(-c2nc(-c3ccc(OC)cc3)n(CC(=O)N3CCN(c4ccc(C(F)(F)F)cn4)CC3)n2)cc1
Prompt: // select label with min value of measured pEC50 from [ 1 , 2 ] Your answer should be the label of the entry you select.
Response: 2

###

Biological target: human recombinant mGluR5 (Homo sapiens)
Construct: tetracycline removed 3-7 days before the assay
Test: positive modulation of mGluR5, calcium based FLIPR assay in HEK 293 cells
Settings: HEK 293 cell line expressing human recombinant mGluR5; EC50 of the modulation of the glutamate response (glutamate approx. 5% basal stimulation); peak height of Ca release fluorescence signal
Method: The positive modulation of mGluR5 is measured in a HEK 293 cell line expressing human recombinant mGluR5 and is detected with calcium based FLIPR assay. […] 20 μl of each compound solution are then transferred to the assay plate and the Ca2+ kinetic is measured to determine any intrinsic compound activity. […] The peak height of the Ca release related fluorescence signal (9-66) is used for the EC50. The EC50 of the modulation is calculated over a nonlinear regression with GraphPad Prism (Table 1).
PROPERTY LABEL: EC50 (µM)

// solved cases for EC50 follow
{"SMILES STRUCTURE": "O=C(Cn1nc(-c2ccc(F)cc2)nc1-c1ccc(F)cc1)N1CCN(c2cc(OCc3cccnc3)ncn2)CC1", "EC50, µM": 0.039}
{"SMILES STRUCTURE": "CCOc1ccc(-c2nc(-c3ccccc3)n(CC(=O)N3CCN(c4ncccn4)CC3)n2)cc1", "EC50, µM": 0.077}
{"SMILES STRUCTURE": "Cc1ccnc(N2CCN(C(=O)Cn3nc(-c4ccc(F)cc4)nc3-c3ccc(F)cn3)CC2)c1", "EC50, µM": 0.783}

a = COc1cc(N2CCN(C(=O)Cn3nc(-c4cc(C)cc(C)c4)nc3-c3ccccc3)CC2)ncn1
b = COc1cnnc(N2CCN(C(=O)Cn3nc(-c4ccc(F)cc4)nc3-c3ccc(F)cc3)CC2)c1
Prompt: Hi there, can you help? I need to know whether a or b has lower measured EC50. Answer by stating the label of the chosen item.
Response: a
(a: 0.121 µM, b: 0.421 µM)

A = Cc1cc(-c2nc(-c3ccccc3)nn2CC(=O)N2CCN(c3ncccn3)CC2)ccc1F
B = O=C1CCCN1CCOc1cc(N2CCN(C(=O)Cn3nc(-c4ccc(F)cc4)nc3-c3ccc(F)cc3)CC2)ncn1
Prompt: Sorting by EC50 in descending order, would A or B appear first? Refer to your chosen item by its label in the answer.
Response: B
(B: 0.17 µM, A: 0.087 µM)
